Target: kinases (Homo sapiens, UniProt P10721, V559D/V654A)
Construct: purchased Eurofins/DiscoveRx; host or cells: E. coli BL21-derived host (T7 phage display) for most kinases; HEK-293 for the rest
Sequence (P10721 26-976 V559D/V654A): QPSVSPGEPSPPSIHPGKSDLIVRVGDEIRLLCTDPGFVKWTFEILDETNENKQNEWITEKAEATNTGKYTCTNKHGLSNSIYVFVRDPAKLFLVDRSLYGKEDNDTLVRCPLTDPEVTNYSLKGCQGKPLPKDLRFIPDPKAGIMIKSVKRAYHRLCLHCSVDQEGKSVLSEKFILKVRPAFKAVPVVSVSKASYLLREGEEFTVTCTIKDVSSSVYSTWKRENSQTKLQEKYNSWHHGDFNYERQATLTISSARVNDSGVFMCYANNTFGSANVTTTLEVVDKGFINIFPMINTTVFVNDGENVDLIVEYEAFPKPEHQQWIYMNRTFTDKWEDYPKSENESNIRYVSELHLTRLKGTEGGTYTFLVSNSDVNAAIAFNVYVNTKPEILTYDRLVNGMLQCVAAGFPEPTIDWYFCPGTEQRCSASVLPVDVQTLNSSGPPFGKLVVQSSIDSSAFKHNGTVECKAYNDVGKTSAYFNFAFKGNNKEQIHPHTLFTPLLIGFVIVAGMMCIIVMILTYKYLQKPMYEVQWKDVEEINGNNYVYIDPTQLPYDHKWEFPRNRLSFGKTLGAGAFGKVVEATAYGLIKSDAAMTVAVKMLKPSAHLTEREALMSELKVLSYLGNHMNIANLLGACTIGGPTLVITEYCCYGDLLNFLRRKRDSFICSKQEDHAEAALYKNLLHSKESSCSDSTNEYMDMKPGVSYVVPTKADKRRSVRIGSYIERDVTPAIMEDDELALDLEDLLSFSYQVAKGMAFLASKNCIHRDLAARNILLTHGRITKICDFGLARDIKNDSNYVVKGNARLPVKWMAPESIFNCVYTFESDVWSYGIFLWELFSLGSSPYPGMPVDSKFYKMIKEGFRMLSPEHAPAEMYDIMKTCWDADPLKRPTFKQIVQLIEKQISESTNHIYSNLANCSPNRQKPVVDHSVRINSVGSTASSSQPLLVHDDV
Assay: KINOMEscan kinase binding assay (Eurofins/DiscoveRx), % Ctrl
Details: 1 μM; target KIT(V559D, V654A)
readout.kind: % Ctrl, KIT(V559D, V654A) (% Ctrl)

{"structure.notation": "Cc1cc2c([nH]1)/C=C1\\C(=O)Nc3ccc(cc31)-c1c(noc1C(C)C)COCCN(C)C2=O", "system.under.test": "kinases (Homo sapiens, UniProt P10721, V559D/V654A)", "observed.value": 87}
{"structure.notation": "Cc1cc2c([nH]1)/C=C1\\C(=O)Nc3cnc(cc31)-c1cnn(C)c1CN(C)CCN(C)C2=O", "system.under.test": "kinases (Homo sapiens, UniProt P10721, V559D/V654A)", "observed.value": 40}
{"structure.notation": "Cc1cc2c([nH]1)/C=C1\\C(=O)Nc3ccc(cc31)-c1cnn(C)c1OCCCN(C)C2=O", "system.under.test": "kinases (Homo sapiens, UniProt P10721, V559D/V654A)", "observed.value": 43}
{"structure.notation": "CN1CCOc2cc3c(cc2Cl)NC(=O)/C3=C\\c2[nH]ccc2C(=O)N(C)CC1", "system.under.test": "kinases (Homo sapiens, UniProt P10721, V559D/V654A)", "observed.value": 27}
{"structure.notation": "Cc1cc2c([nH]1)/C=C1\\C(=O)Nc3cc(Cl)c(cc31)SCCOCCN(C)C2=O", "system.under.test": "kinases (Homo sapiens, UniProt P10721, V559D/V654A)", "observed.value": 13}

====

A collection of compounds and their measured % Ctrl, PDGFRB
Molecular target: kinases (Homo sapiens)
Construct: purchased Eurofins/DiscoveRx; host or cells: E. coli BL21-derived host (T7 phage display) for most kinases; HEK-293 for the rest
Assay: KINOMEscan kinase binding assay (Eurofins/DiscoveRx), % Ctrl
Details: 1 μM; PDGFRB
readout.kind: % Ctrl, PDGFRB (% Ctrl)

{"structure.notation": "Cc1cc2c([nH]1)/C=C1\\C(=O)Nc3cc(Cl)c(cc31)OCCO[C@@H](C(=O)NC1CNC1)CN(C)C2=O", "observed.value": 60}
{"structure.notation": "Cc1cc2c([nH]1)/C=C1\\C(=O)Nc3ccc(nc31)-c1ccccc1OCCCNC2=O", "observed.value": 100}
{"structure.notation": "Cc1cc2c([nH]1)/C=C1\\C(=O)Nc3ccc(cc31)OCCOCCNC2=O", "observed.value": 100}
{"structure.notation": "Cc1cc2c([nH]1)/C=C1\\C(=O)Nc3ccc(cc31)-c1c(C)n[nH]c1CNCCN(C)C2=O", "observed.value": 28}
{"structure.notation": "Cc1cc2c([nH]1)/C=C1\\C(=O)Nc3ccc(cc31)-c1ccnn1CCOCCNC2=O", "observed.value": 91}
{"structure.notation": "Cc1cc2c([nH]1)/C=C1\\C(=O)Nc3ccc(cc31)-c1c(noc1C)COCCN(C)C2=O", "observed.value": 85}
{"structure.notation": "Cc1cc2c([nH]1)/C=C1\\C(=O)Nc3ccc(cc31)-c1cnn(C)c1CNCCN(C)C2=O", "observed.value": 0.4}
{"structure.notation": "Cc1cc2c([nH]1)/C=C1\\C(=O)Nc3ccc(cc31)-c1cnn(C)c1COCCN(C)C2=O", "observed.value": 0.35}
